Values compiled from paper PMC9482650.

Biological target: NHERF4_1, Q86UT5-2
Sequence (Q86UT5 other isoform, or with tags, fused parts or gaps): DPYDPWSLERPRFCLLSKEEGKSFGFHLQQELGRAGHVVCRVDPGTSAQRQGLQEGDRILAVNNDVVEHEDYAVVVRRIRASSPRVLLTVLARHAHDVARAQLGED
Test: holdup assay
Set-up: key: below the threshold = too weak to quantify, mostly under pKd 3.1 to 4
Details: plain residues with an end cap or a label only (N-terminal biotin on a linker: ado-ado)
RECORDED_ENDPOINT: pKd

Record TKDKVQETQI [LRRC4, Q9HBW1] , field pKd: below the threshold

In plain terms, VCMGDHWFDV [PRKN, O60260] has a documented pKd of below the threshold

Just so you know, measured pKd for NTALVESEDL [PALLS, Q8WX93;Q8WX93-1] came out at below the threshold

Data point: PLATCDETSI [SEMA4F, O95754] ; pKd = below the threshold

Form field pKd, entry PSDSVGKDVF [EGLN1, Q9GZT9] : below the threshold

Further cases:
Data point: KKTPVSRSHL [SLC22A3, O75751] ; pKd = 3.94

Notebook: FVFESRKEIL [TBPL1, P62380] , pKd read as 4.08

Documented pKd of PGKKPEDSRV [SLCO2B1, O94956] : below the threshold

The reported pKd of the binder VISSDDLTEL [CAPN6, Q9Y6Q1] was 3.94

Form field pKd, entry EPAKETTTNV [SLC2A3, P11169] : below the threshold

get_value(item= ELKAEDEVQI [DCHS2, Q6V1P9] , readout=pKd) returns below the threshold

pKd reading for SKQFDKNAYV [CLDN10, P78369] : below the threshold

Form: binder = PKSNSSKEYV [CLDN7, O95471] ; pKd = below the threshold
